The origin of these recorded values is the supplement of paper PMC6755084.

B1: minF1; a variant is named by its letters at N, in order (parent)
chain: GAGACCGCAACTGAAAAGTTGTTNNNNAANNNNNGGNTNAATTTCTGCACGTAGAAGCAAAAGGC

variants of: B1; test: fraction ligated after 30 min (ligated reads / total reads); higher = more ligase activity; conditions: with F1*subA RNA substrate (template-directed ligation), 42 °C
measurement name: fraction ligated
Keep it simple and answer with nothing but the number.

variant string: ATCGATGGAGT G35T
fraction ligated: 0.0345
--
variant string: ATCAAAGAGTG A28G
fraction ligated: 0.00276
--
variant string: ACAGATGGTGT
fraction ligated: 0.002
--
variant string: ATCAAGGTGTG A28G
fraction ligated: 0.00322

Field request: fraction ligated | item: ATCAAGGAGTG A28G
0.00604

Entry CAGATGGAGTG T23A : reported fraction ligated = ?
0.00336

Fill in the blank: the reported fraction ligated of ATCGATATGTG is ____.
0.00384

Requested field: fraction ligated. Item: ATCAGGATGTG A29T
0.0416
